B1: GNAI1 (parent)
chain: WIHCFEGVTAIIFCVALSDYDLVL

variants of: B1; experiment: protein stability index of a GFP-peptide fusion (GPS, HEK-293T) (PSI 1-6); higher = more stable; details: c terminus: a fixed tail appended;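 further: lentivirally expressed fusions sorted by FACS into six bins by GFP to DsRed ratio, PSI derived from sequencing read proportions per bin multiplied by bin number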
Provide the recorded protein stability index for the entries that follow.

Task: What value of measured protein stability index is listed for "E6V" ?
Result: 2.97

Task: What value of measured protein stability index is listed for "D19Q" ?
Result: 2.96

Task: What value of measured protein stability index is listed for "D21E" ?
Result: 4.04

Task: What value of measured protein stability index is listed for "A10C" ?
Result: 4.03

Task: What value of measured protein stability index is listed for "V23F" ?
Result: 2.29

Task: What value of measured protein stability index is listed for "H3E" ?
Result: 3.35

Task: What value of measured protein stability index is listed for "A16M" ?
Result: 2.41

Task: What value of measured protein stability index is listed for "Y20A" ?
Result: 3

Task: What value of measured protein stability index is listed for "W1M" ?
Result: 2.91

Task: What value of measured protein stability index is listed for "L24V" ?
Result: 2.12

Task: What value of measured protein stability index is listed for "L22D" ?
Result: 3.04

Task: What value of measured protein stability index is listed for "C4F" ?
Result: 2.8

Task: What value of measured protein stability index is listed for "L24E" ?
Result: 1.42

Task: What value of measured protein stability index is listed for "A10Y" ?
Result: 2.76

Task: What value of measured protein stability index is listed for "F13Q" ?
Result: 3.46

Task: What value of measured protein stability index is listed for "C4Q" ?
Result: 3.17

Task: What value of measured protein stability index is listed for "I12W" ?
Result: 2.95

Task: What value of measured protein stability index is listed for "T9F" ?
Result: 3.82

Task: What value of measured protein stability index is listed for "I2D" ?
Result: 2.21

Task: What value of measured protein stability index is listed for "F13K" ?
Result: 4.12

Task: What value of measured protein stability index is listed for "A10N" ?
Result: 3.19

Task: What value of measured protein stability index is listed for "W1D" ?
Result: 3.44

Task: What value of measured protein stability index is listed for "V15T" ?
Result: 2.03

Task: What value of measured protein stability index is listed for "C14Q" ?
Result: 2.43

Task: What value of measured protein stability index is listed for "Y20V" ?
Result: 2.86

Task: What value of measured protein stability index is listed for "S18L" ?
Result: 4.7

Task: What value of measured protein stability index is listed for "A10Q" ?
Result: 2.09

Task: What value of measured protein stability index is listed for "H3N" ?
Result: 3.58

Task: What value of measured protein stability index is listed for "W1H" ?
Result: 3.09

Task: What value of measured protein stability index is listed for "W1I" ?
Result: 4.21

Task: What value of measured protein stability index is listed for "Y20R" ?
Result: 2.75

Task: What value of measured protein stability index is listed for "E6C" ?
Result: 1.95

Task: What value of measured protein stability index is listed for "C4G" ?
Result: 3.37

Task: What value of measured protein stability index is listed for "F13N" ?
Result: 2.17

Task: What value of measured protein stability index is listed for "V15Q" ?
Result: 3.42

Task: What value of measured protein stability index is listed for "V23K" ?
Result: 3.57

Task: What value of measured protein stability index is listed for "C14Y" ?
Result: 3.37

Task: What value of measured protein stability index is listed for "I11T" ?
Result: 1.61

# credit: the supplement of paper PMC10567573
